The reported numbers originate from paper PMC7936271.

- PROTOCOL_DESCRIPTION: Metabolic stability assay in mouse liver microsomes
- Type: in vitro ADME
- CONDITION_INFO: mouse liver microsomes, 2.0 μM, 37 °C; data >60 min are an extrapolated estimate; read-out: t1/2, min MLM
PROPERTY_MEASURED: half-life at 2 μM
Provide the measurement as a number trailed by its unit.

Examples with answers:
> print(dat)
                                   molecule  reading
1  CNC(=O)c1ccc(C(=O)Nc2cc(NC(=O)c3ccc4c(c3)c(-c3cc5ccccc5n3C)nn4C)ccc2C)cc1   0.85 h
2  CNC(=O)c1ccc(C(=O)Nc2cc(NC(=O)c3ccc4c(c3)c(-c3ccc(N)nc3)nn4C)ccc2C)cc1   3.17 h

Query (molecule): CNC(=O)c1cc(NC(=O)c2ccc3c(c2)c(-c2ccc(N)cc2C)nn3C)ccc1C ; field requested: half-life at 2 μM 2.5 h

Here is the next molecule: Cc1sc2c(c1C)C(c1ccc(Cl)cc1)=N[C@@H](CC(=O)OC(C)(C)C)c1nnc(C)n1-2 [JQ1, reference compound] 0.25 h

Here is the next molecule: CNC(=O)c1ccc(C(=O)Nc2cc(NC(=O)c3ccc4c(c3)c(-c3ccc(N)cc3C)nn4C)ccc2C)cc1 1.53 h

---

- ASSAY_TARGET: BRDT-BD1 (Homo sapiens)
- Construct: NP_001717.3 amino acid 21− 137; made in house; host or cells: E. coli NiCo21 (DE3)
- PROTOCOL_DESCRIPTION: AlphaScreen competition assay with biotinylated JQ1, BRDT-BD1
- Type: binding
- CONDITION_INFO: AlphaScreen, biotinylated JQ1 as ligand; NE: no effect at 20 µM
PROPERTY_MEASURED: IC50 (nM)
Report the figure in nM without appending any unit label.

> print(dat)
                                  structure  reading
1  CC(=O)Nc1cc(NC(=O)c2ccc3c(c2)c(-c2ccc(N)nc2)nn3C)ccc1C    36200

Query (compound): CC(=O)Nc1cc(NC(=O)c2ccc3c(c2)c(-c2ccc(N)cc2C)nn3C)ccc1C ; field requested: IC50 15800

Here is the next compound: CC(=O)Nc1cccc(NC(=O)c2ccc3c(c2)c(-c2ccc(N)cc2C)nn3C)c1 19700

---

- ASSAY_TARGET: BRDT-BD2 (Homo sapiens, UniProt Q58F21)
- PROTOCOL_DESCRIPTION: AlphaScreen competition assay with biotinylated JQ1, BRDT-BD2
- Format: binding
- Design: BRDT-BD2, NP_001717.3 amino acid 269− 380; made in house; host or cells: E. coli NiCo21 (DE3)
- CONDITION_INFO: ratio of AlphaScreen IC50 values
PROPERTY_MEASURED: BRDT-BD2 vs. BRD4-BD2
Number only, no unit.

Examples with answers:
> print(dat)
                                   compound  reading
1  Cc1sc2c(c1C)C(c1ccc(Cl)cc1)=N[C@@H](CC(=O)OC(C)(C)C)c1nnc(C)n1-2 [JQ1, reference compound]      0.4
2  CC(=O)Nc1cc(NC(=O)c2ccc3c(c2)c(-c2ccc(N)cc2C)nn3C)ccc1C      1.5
3  CNC(=O)c1ccc(C(=O)Nc2cc(NC(=O)c3ccc4c(c3)c(-c3cc5ccccc5n3C)nn4C)ccc2C)cc1      2.4
4  CNC(=O)c1cc(NC(=O)c2ccc3c(c2)c(-c2ccc(N)cc2C)nn3C)ccc1C      1.1
5  CC(=O)Nc1cc(NC(=O)c2ccc3c(c2)c(-c2ccc(N)nc2)nn3C)ccc1C      1.1
6  CC(=O)Nc1cccc(NC(=O)c2ccc3c(c2)c(-c2ccc(N)cc2C)nn3C)c1      1.5

# ---- query compound ----
Query (compound): CNC(=O)c1ccc(C(=O)Nc2cc(NC(=O)c3ccc4c(c3)c(-c3ccc(N)nc3)nn4C)ccc2C)cc1 ; field requested: BRDT-BD2 vs. BRD4-BD2 2.7
